# ASSAY_INFO: Inhibition of Staphylococcus aureus tyrosyl-tRNA synthetase expressed in Escherichia coli assessed as reduction in tRNA aminoacylation pre-incubated for 10 mins before addition of Escherichia coli MRE600 tRNA and L-tyrosine
RESULT_TYPE: IC50 (µM)

Nc1ncnc2c1ncn2[C@@H]1O[C@H](COC(=O)Cc2cccc(Br)c2)[C@@H](O)[C@H]1O 3.3

P: CC1(C)O[C@@H]2[C@H](O1)[C@@H](COC(=O)Cc1cccc(O)c1)O[C@H]2n1cnc2c(N)ncnc21
Q: Nc1ncnc2c1ncn2[C@@H]1O[C@H](COC(=O)c2ccc(Cl)cc2)[C@@H](O)[C@H]1O
R: Nc1ncnc2c1ncn2[C@@H]1O[C@H](COC(=O)Cc2ccc(Cl)c(Cl)c2)[C@@H](O)[C@H]1O
Could you please sort these 3 entries by IC50 from high to low? Output the labels ranked as instructed. R, Q, P

a: Nc1ncnc2c1ncn2[C@@H]1O[C@H](COC(=O)Cc2ccc(Cl)cc2)[C@@H](O)[C@H]1O
b: Nc1ncnc2c1ncn2[C@@H]1O[C@H](COC(=O)Cc2ccccc2O)[C@@H](O)[C@H]1O
Given a and given b , which shows the smaller recorded IC50? Returns: label corresponding to the selected item. a
(a: 8.1 µM, b: 44 µM)

a: Nc1ncnc2c1ncn2[C@@H]1O[C@H](COC(=O)c2cccc(F)c2)[C@@H](O)[C@H]1O
b: Nc1ncnc2c1ncn2[C@@H]1O[C@H](COC(=O)c2ccccc2)[C@@H](O)[C@H]1O
c: CCCCCC(=O)OC[C@H]1O[C@@H](n2cnc3c(N)ncnc32)[C@H](O)[C@@H]1O
d: CC1(C)O[C@@H]2[C@H](O1)[C@@H](COC(=O)Cc1cccc(Br)c1)O[C@H]2n1cnc2c(N)ncnc21
Arrange the 4 compounds by rising IC50, starting with the smallest. Form entry: ranked labels (order as requested). d, a, b, c

1: Nc1ncnc2c1ncn2[C@@H]1O[C@H](COC(=O)c2cccc(Cl)c2)[C@@H](O)[C@H]1O
2: CC1(C)O[C@@H]2[C@H](O1)[C@@H](COC(=O)Cc1ccccc1O)O[C@H]2n1cnc2c(N)ncnc21
3: CCCCCCCC(=O)OC[C@H]1O[C@@H](n2cnc3c(N)ncnc32)[C@H](O)[C@@H]1O
4: Nc1ncnc2c1ncn2[C@@H]1O[C@H](COC(=O)Cc2cccc(Cl)c2)[C@@H](O)[C@H]1O
Please list these compounds in decreasing order of IC50. List labels; respect the requested ordering. 3, 2, 1, 4
